Field: viscosity. Provide a value for each of the molecules that follow.
# Test Conditions: 308.15 K; 101 kPa; Liquid
Entry rule: numbers only, all in mPa·s.

Item CCCCn1cc[n+](C)c1.N#C[S-] [1-butyl-3-methylimidazolium thiocyanate] has what recorded viscosity?
34.87

Item CCCCCCCCCO [nonan-1-ol] has what recorded viscosity?
6.497

Item CCCCCCCO [heptan-1-ol] has what recorded viscosity?
4.26

Item CCCCCCCCO [octan-1-ol] has what recorded viscosity?
5.285

Item CCCCCCCCCCO [decan-1-ol] has what recorded viscosity?
7.632

###

# Test Conditions: 318.15 K; 101 kPa; Liquid
Quantity: mass density (kg/m3)
Entry rule: numbers only, all in kg/m3.

Item "CCCCCCCO" has what recorded mass density?
804.55

Item CCCCn1cc[n+](C)c1.N#C[S-] [1-butyl-3-methylimidazolium thiocyanate] has what recorded mass density?
1058.02

Item "CCCCCCCCCO" has what recorded mass density?
810.4

Item "CCCCCCCCO" has what recorded mass density?
807.57

Item "CCCCCCCCCCO" has what recorded mass density?
812.62

Recorded values, source the NIST ThermoML archive (doi:10.1021/je901043q).
